From: patent US20240299385A1

target: human GPR17 receptor (Homo sapiens, UniProt Q13304); test: Calcium mobilization functional assay (Fluo-8, FLIPR TETRA) in HEK-293 hGPR17 (Gα-q assay); details: antagonism of MDL29,951 (~EC80) induced Ca2+ signal; cell line (HEK-293 hGPR17 or HEK-293 Suchi5 hGPR17) not given
Sequence (Q13304 whole entry): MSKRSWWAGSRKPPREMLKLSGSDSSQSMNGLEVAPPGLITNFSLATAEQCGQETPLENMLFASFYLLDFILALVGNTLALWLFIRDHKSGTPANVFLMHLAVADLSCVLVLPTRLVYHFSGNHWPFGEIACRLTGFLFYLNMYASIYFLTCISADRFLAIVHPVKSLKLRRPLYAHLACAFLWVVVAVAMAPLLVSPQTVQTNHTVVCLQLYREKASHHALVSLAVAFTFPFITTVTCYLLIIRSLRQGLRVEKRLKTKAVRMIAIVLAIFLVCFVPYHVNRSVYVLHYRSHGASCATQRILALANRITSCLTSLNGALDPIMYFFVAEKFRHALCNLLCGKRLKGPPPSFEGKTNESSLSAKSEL
pIC50: −log10 of the molar value.

[
  {
    "Chemical string": "N#Cc1ccc(NS(=O)(=O)c2c[nH]c(CC3CC3)c2)c(F)c1",
    "Experimental system": "human GPR17 receptor (Homo sapiens, UniProt Q13304)",
    "pIC50": "5.30 to 6.30"
  },
  {
    "Chemical string": "COc1c(F)cccc1-c1cc(S(=O)(=O)Nc2cc(F)c(C#N)cc2F)c[nH]1",
    "Experimental system": "human GPR17 receptor (Homo sapiens, UniProt Q13304)",
    "pIC50": "> 6.30"
  },
  {
    "Chemical string": "N#Cc1ccc(NS(=O)(=O)c2c[nH]c(-c3cscc3F)c2)c(F)c1",
    "Experimental system": "human GPR17 receptor (Homo sapiens, UniProt Q13304)",
    "pIC50": "> 6.30"
  },
  {
    "Chemical string": "Cn1cncc1-c1cc(S(=O)(=O)Nc2cc(F)c(C(F)(F)F)cc2F)c[nH]1",
    "Experimental system": "human GPR17 receptor (Homo sapiens, UniProt Q13304)",
    "pIC50": "5.30 to 6.30"
  },
  {
    "Chemical string": "Cc1cccc(Cc2c[nH]cc2S(=O)(=O)Nc2ccc(C#N)cc2F)c1",
    "Experimental system": "human GPR17 receptor (Homo sapiens, UniProt Q13304)",
    "pIC50": "5.30 to 6.30"
  },
  {
    "Chemical string": "N#Cc1sc(NS(=O)(=O)c2c[nH]c(-c3ccccc3)c2)cc1F",
    "Experimental system": "human GPR17 receptor (Homo sapiens, UniProt Q13304)",
    "pIC50": "4.30 to 5.30"
  },
  {
    "Chemical string": "O=S(=O)(Nc1cc(F)c(F)cc1F)c1c[nH]c(-c2ccccn2)c1",
    "Experimental system": "human GPR17 receptor (Homo sapiens, UniProt Q13304)",
    "pIC50": "5.30 to 6.30"
  },
  {
    "Chemical string": "N#Cc1ccc(NS(=O)(=O)c2c[nH]cc2Cc2ccccc2OC(F)(F)F)c(F)c1",
    "Experimental system": "human GPR17 receptor (Homo sapiens, UniProt Q13304)",
    "pIC50": "5.30 to 6.30"
  },
  {
    "Chemical string": "O=S(=O)(Nc1ccc(C(F)(F)F)c(F)c1F)c1c[nH]c(-c2ccccc2)c1",
    "Experimental system": "human GPR17 receptor (Homo sapiens, UniProt Q13304)",
    "pIC50": "5.30 to 6.30"
  }
]

###

Reported pIC50 values are given for each entry in this list.
molecular target: UniProt:Q13304; test: Calcium mobilization functional assay (Fluo-8, FLIPR TETRA) in HEK-293 hGPR17 (Gα-q assay); conditions: antagonism of MDL29,951 (~EC80) induced Ca2+ signal; cell line (HEK-293 hGPR17 or HEK-293 Suchi5 hGPR17) not given
pIC50: −log10 of the molar value.
Measured attribute: pIC50

[
  {
    "Molecule": "N#Cc1ccc(NS(=O)(=O)c2c[nH]c(-c3cc(F)ccc3F)c2)c(F)c1",
    "Measured result": "> 6.30"
  },
  {
    "Molecule": "N#Cc1ccc(NS(=O)(=O)c2c[nH]cc2Cc2ccccc2)cc1",
    "Measured result": "5.30 to 6.30"
  },
  {
    "Molecule": "O=S(=O)(Nc1cc(F)c(C(F)(F)F)cc1F)c1c[nH]c(-c2cccc3c2OCC3)c1",
    "Measured result": "5.30 to 6.30"
  },
  {
    "Molecule": "O=S(=O)(Nc1cc(F)c(Br)cc1F)c1c[nH]cc1-c1cccc(F)c1",
    "Measured result": "5.30 to 6.30"
  },
  {
    "Molecule": "O=S(=O)(Nc1ccc(F)cc1F)c1c[nH]c(-c2cccc(F)c2)c1",
    "Measured result": "4.30 to 5.30"
  },
  {
    "Molecule": "O=S(=O)(Nc1cc(OC(F)F)c(Cl)cc1F)c1c[nH]cc1-c1cccc(F)c1",
    "Measured result": "5.30 to 6.30"
  },
  {
    "Molecule": "COc1nccc(F)c1-c1cc(S(=O)(=O)Nc2ccc(C#N)cc2F)c[nH]1",
    "Measured result": "> 6.30"
  },
  {
    "Molecule": "N#Cc1cc(F)c(NS(=O)(=O)c2c[nH]c(-c3ncc(Cl)s3)c2)cc1F",
    "Measured result": "> 6.30"
  },
  {
    "Molecule": "COc1cc(C(F)(F)F)ccc1NS(=O)(=O)c1c[nH]c(-c2ccccc2)c1",
    "Measured result": "4.30 to 5.30"
  },
  {
    "Molecule": "Cc1ccc(-c2cc(S(=O)(=O)Nc3ccc(C#N)cc3F)c[nH]2)c(C)c1",
    "Measured result": "5.30 to 6.30"
  },
  {
    "Molecule": "CC(=O)c1ccc(NS(=O)(=O)c2c[nH]c(-c3ccccn3)c2)c(F)c1",
    "Measured result": "4.30 to 5.30"
  },
  {
    "Molecule": "COc1cccnc1-c1cc(S(=O)(=O)Nc2cc(F)c(C(F)(F)F)cc2F)c[nH]1",
    "Measured result": "5.30 to 6.30"
  },
  {
    "Molecule": "N#Cc1ccc(NS(=O)(=O)c2c[nH]c(-c3cccc(CO)c3F)c2)c(F)c1",
    "Measured result": "5.30 to 6.30"
  },
  {
    "Molecule": "N#Cc1ccc(NS(=O)(=O)c2c[nH]cc2Cc2ccc(Cl)cc2)c(F)c1",
    "Measured result": "5.30 to 6.30"
  },
  {
    "Molecule": "COc1cc(CC#N)cnc1NS(=O)(=O)c1c[nH]c(-c2ccccc2F)c1",
    "Measured result": "5.30 to 6.30"
  },
  {
    "Molecule": "O=S(=O)(Nc1cccc2c1OC(F)(F)O2)c1c[nH]c(-c2ccccc2)c1",
    "Measured result": "5.30 to 6.30"
  },
  {
    "Molecule": "N#Cc1ccc(NS(=O)(=O)c2c[nH]c(-c3cc(F)cc(F)c3F)c2)c(F)c1",
    "Measured result": "5.30 to 6.30"
  },
  {
    "Molecule": "Cc1ccc(-c2cc(S(=O)(=O)Nc3cc(F)c(C(F)(F)F)cc3F)c[nH]2)c(F)c1",
    "Measured result": "4.30 to 5.30"
  },
  {
    "Molecule": "N#Cc1ccc(NS(=O)(=O)c2c[nH]c(-c3ccc(F)cc3)c2)c(F)c1",
    "Measured result": "> 6.30"
  },
  {
    "Molecule": "COc1ccc(-c2cc(S(=O)(=O)Nc3cc(F)c(C(F)(F)F)cc3F)c[nH]2)cc1",
    "Measured result": "4.30 to 5.30"
  },
  {
    "Molecule": "Cc1cc(F)c(NS(=O)(=O)c2c[nH]c(-c3ccccc3)c2)cc1F",
    "Measured result": "> 6.30"
  },
  {
    "Molecule": "Cc1ccc(Cl)c(-c2cc(S(=O)(=O)Nc3ccc(C#N)cc3F)c[nH]2)c1",
    "Measured result": "5.30 to 6.30"
  },
  {
    "Molecule": "N#Cc1ccc(NS(=O)(=O)c2c[nH]c(-c3ccc(Cl)cc3Cl)c2)c(F)c1",
    "Measured result": "5.30 to 6.30"
  },
  {
    "Molecule": "O=S(=O)(Nc1ccc(C(F)(F)F)nc1F)c1c[nH]c(-c2ccccc2)c1",
    "Measured result": "5.30 to 6.30"
  },
  {
    "Molecule": "O=S(=O)(Nc1cc(F)c(OCC(F)F)cc1F)c1c[nH]c(-c2ccccn2)c1",
    "Measured result": "5.30 to 6.30"
  },
  {
    "Molecule": "N#Cc1ccc(NS(=O)(=O)c2c[nH]c(-c3ccccc3)c2)c(F)c1",
    "Measured result": "> 6.30"
  },
  {
    "Molecule": "O=S(=O)(Nc1ccc(OC(F)F)cc1F)c1c[nH]c(-c2ccccn2)c1",
    "Measured result": "5.30 to 6.30"
  },
  {
    "Molecule": "N#Cc1cc(F)c(NS(=O)(=O)c2c[nH]c(-c3cc(Cl)ccc3F)c2)cc1F",
    "Measured result": "> 6.30"
  },
  {
    "Molecule": "O=S(=O)(Nc1cc(F)c(C(F)(F)F)cc1F)c1c[nH]c(-c2cc(C(F)(F)F)ccn2)c1",
    "Measured result": "4.30 to 5.30"
  },
  {
    "Molecule": "O=S(=O)(Nc1ccc(OC(F)(F)F)cc1F)c1c[nH]c(-c2ccccn2)c1",
    "Measured result": "5.30 to 6.30"
  },
  {
    "Molecule": "N#Cc1cc(F)c(NS(=O)(=O)c2c[nH]c(-c3cncs3)c2)cc1F",
    "Measured result": "> 6.30"
  },
  {
    "Molecule": "N#Cc1ccc(NS(=O)(=O)c2c[nH]cc2C(O)c2ccccc2)c(F)c1 (stereo not drawn)",
    "Measured result": "4.30 to 5.30"
  },
  {
    "Molecule": "Cc1[nH]c(-c2ccccc2)cc1S(=O)(=O)Nc1ccc(C#N)cc1F",
    "Measured result": "5.30 to 6.30"
  },
  {
    "Molecule": "N#Cc1ccc(NS(=O)(=O)c2c[nH]cc2-c2ccccc2Cl)c(F)c1",
    "Measured result": "4.30 to 5.30"
  },
  {
    "Molecule": "O=S(=O)(Nc1cc(F)c(C(F)(F)F)cc1F)c1c[nH]c(-c2ncccc2F)c1",
    "Measured result": "> 6.30"
  },
  {
    "Molecule": "COc1nc(C)ccc1NS(=O)(=O)c1c[nH]c(-c2ccccc2)c1",
    "Measured result": "4.30 to 5.30"
  }
]
